# assay: in vivo
# condition-details: Daphnia magna, LC50, incubation period 48 h
assay-readout: LC50

Report LC50 for `COc1cccc(/C=N/NC(=O)c2ccncc2)c1O` please. 52.6 µM

---

# assay: Solubility in compendial aqueous media
# Type: physicochemical
# condition-details: Acetate Buffer (pH = 4.5); 37 °C, 30 min; mean ± standard deviation, n = 3
assay-readout: solubility in compendial media (µg/mL)
Lab book: enter the figure in µg/mL, no units written.

# molecule, endpoint-unit, solubility in compendial media
data = [
    ("COc1cccc(C=NNC(=O)c2ccncc2)c1[O-].[Cl-].[Pt+2] [complex 8, [Pt(L)(Cl)]]", "µg/mL", 2.49),
    ("COc1cccc(C=NNC(=O)c2ccncc2)c1[O-].O.O.[Cl-].[Cu+2] [complex 1, [Cu(L)(Cl)]·2H2O]", "µg/mL", 1.89),
    ("CC(=O)[O-].COc1cccc(C=NNC(=O)c2ccncc2)c1[O-].[Cu+2] [complex 2, [Cu(L)(CH3COO)]]", "µg/mL", 1.27),
    ("COc1cccc(C=NNC(=O)c2ccncc2)c1[O-].[Cl-].[Ni+2] [complex 7, [Ni(L)(Cl)]]", "µg/mL", 1.91),
    ("COc1cccc(C=NNC(=O)c2ccncc2)c1[O-].COc1cccc(C=NNC(=O)c2ccncc2)c1[O-].[Co+2] [complex 5, [Co(L)2]]", "µg/mL", 1.62),
]

Report solubility in compendial media for COc1cccc(C=NNC(=O)c2ccncc2)c1[O-].O.O=[N+]([O-])[O-].[Cu+2] [complex 3, [Cu(L)(NO3)]·H2O] please. 1.69

Report solubility in compendial media for COc1cccc(C=NNC(=O)c2ccncc2)c1[O-].COc1cccc(C=NNC(=O)c2ccncc2)c1[O-].[Zn+2] [complex 6, [Zn(L)2]] please. 1.56

Report solubility in compendial media for COc1cccc(C=NNC(=O)c2ccncc2)c1[O-].O.[Cu+2].[O-][Cl+3]([O-])([O-])[O-] [complex 4, [Cu(L)(ClO4)]·H2O] please. 1.67

---

# Test system: A375 human melanoma cell line
# assay: Alamar blue cell viability assay
# Type: cell-based
# condition-details: 48 h treatment, 10 µM, relative to untreated control
assay-readout: Viability % (%)
Lab book: enter the figure in %, no units written.

Before answering, review these 3 worked examples.
# molecule, Viability %, %
data = [
    ("COc1cccc(C=NNC(=O)c2ccncc2)c1[O-].COc1cccc(C=NNC(=O)c2ccncc2)c1[O-].[Co+2] [complex 5, [Co(L)2]]", 88.96),
    ("COc1cccc(C=NNC(=O)c2ccncc2)c1[O-].O.O=[N+]([O-])[O-].[Cu+2] [complex 3, [Cu(L)(NO3)]·H2O]", 1.59),
    ("COc1cccc(C=NNC(=O)c2ccncc2)c1[O-].[Cl-].[Ni+2] [complex 7, [Ni(L)(Cl)]]", 98.97),
]

Report Viability % for COc1cccc(C=NNC(=O)c2ccncc2)c1[O-].[Cl-].[Pt+2] [complex 8, [Pt(L)(Cl)]] please. 73.45

Report Viability % for COc1cccc(C=NNC(=O)c2ccncc2)c1[O-].O.[Cu+2].[O-][Cl+3]([O-])([O-])[O-] [complex 4, [Cu(L)(ClO4)]·H2O] please. 0.70

Report Viability % for COc1cccc(C=NNC(=O)c2ccncc2)c1[O-].O.O.[Cl-].[Cu+2] [complex 1, [Cu(L)(Cl)]·2H2O] please. 84.43

Report Viability % for COc1cccc(C=NNC(=O)c2ccncc2)c1[O-].COc1cccc(C=NNC(=O)c2ccncc2)c1[O-].[Zn+2] [complex 6, [Zn(L)2]] please. 71.66

Report Viability % for CC(=O)[O-].COc1cccc(C=NNC(=O)c2ccncc2)c1[O-].[Cu+2] [complex 2, [Cu(L)(CH3COO)]] please. 0.73
